# Method Description: E. coli acrAB mutant growth effects, primary screen, E. coli filamentation inducers, strain DRC39, OD650, 24 h (AID 1178);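 further: growth measured as culture turbidity by optical density at 650 nm; test concentration not given here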
# Condition Notes: higher = more signal, called active from +8 up or from −8 down
Calls of active or inactive are those of the source.
Items are presented alongside their recorded z-score.
Quantity: z-score

| Chemical Smiles | Quantity | Experimental Result |
| --- | --- | --- |
| Cc1ccc(S[C@]2(C(=O)NCCN3CCOCC3)CC(=O)N(Cc3cc(C(F)(F)F)cc(C(F)(F)F)c3)[C@@H]2c2ccc(CO)cc2)cc1 | z-score | 1.01 (inactive) |
| COC(=O)C(CC#Cc1ccc2c(c1)[C@]1(C(=O)N2)[C@H](c2ccccc2OCCO)N2[C@H](c3ccccc3)[C@H](c3ccccc3)OC(=O)[C@H]2[C@@H]1C(=O)N1CCCCCCC1)C(=O)OC | z-score | 0.723 (inactive) |
| CC(C)(C)OC(=O)CC[C@]1(C(=O)NCc2ccccc2)N=C(c2ccc(OCCCO)cc2)O[C@H]1c1ccccc1N=[N+]=[N-] | z-score | 3.14 (inactive) |
| CC(C)C(=C=CC[C@H](O)c1ccc(OCCO)cc1)C[C@H](O)COCc1ccccc1 | z-score | 1.35 (inactive) |
| C=CCC1(CC=C)C[C@H]2CO[C@H](c3ccc(OC)cc3)N2C1=O | z-score | 1.51 (inactive) |
| C=CCN1C(=O)[C@@]2(O[C@@H](CCn3cc(CCO)nn3)[C@H]([Si](C)(C)c3ccc(OC)cc3)[C@H]2C)c2cc(N3C(=O)c4cccc5cccc3c45)ccc21 | z-score | 2.37 (inactive) |
| COC(=O)C(CC#Cc1ccc2c(c1)[C@]1(C(=O)N2)[C@H](C(N)=O)[C@H]2C(=O)O[C@H](c3ccccc3)[C@H](c3ccccc3)N2[C@@H]1c1ccc(O)cc1)C(=O)OC | z-score | 0.105 (inactive) |
| COc1ccc(CCNC(=O)[C@@]2(Sc3ccc(C)cc3)CC(=O)N(Cc3ccccc3)[C@@H]2c2ccc(CO)cc2I)cc1 | z-score | 0.361 (inactive) |
| CCCC[C@@H](O)C1=C(C)C[C@H]2C(=O)N(C)C(=O)[C@H]2[C@H]1CO | z-score | 2.71 (inactive) |
| COCCCNC(=O)[C@@]1(Cc2ccccc2)N=C(c2ccc(OCCCO)cc2)O[C@H]1c1ccccc1N=[N+]=[N-] | z-score | 1.22 (inactive) |
| CCOC(=O)C[C@H]1[C@H](OC(=O)c2ccc(C(=O)c3ccccc3)cc2)[C@@H](NC(=O)Cc2ccc(OC)cc2)c2cc(OCCCO)ccc2N1C(=O)Cc1ccc(OC)cc1 | z-score | 1.74 (inactive) |
| COc1ccc([Si](C)(C)[C@H]2[C@H](CC(=O)N(CCO)Cc3ccccc3)O[C@@]3(C(=O)N(Cc4ccc(N5CCC5=O)cc4)c4ccccc43)[C@@H]2C)cc1 | z-score | 1.61 (inactive) |

====

Here, each record is paired with measured z-score data.
# Method Description: FRG1 promoter luciferase signal modulators, primary screen, FRG1 inhibition for FSHD, cell-based, C2C12 myotubes, firefly/Renilla luciferase, luminescence (AID 1084)
# Condition Notes: higher = more signal, called active from +8 up or from −8 down

| Compound | z-score |
| --- | --- |
| [N-]=[N+]=Nc1ccccc1[C@H]1OC(c2ccc(OCCCO)cc2)=N[C@@]1(Cc1ccccc1)C(N)=O | -0.191 |
| CC(C)N1CC=CC23O[C@@H]4/C=C\CCCOC(=O)C4[C@H]2C(=O)N(CCCO)[C@@H]3C1=O (stereo not given in full) | 1 |
| CCOC(=O)C[C@H]1[C@H](OC(=O)c2ccc(C(=O)c3ccccc3)cc2)[C@@H](NC(=O)Cc2ccc(OC)cc2)c2cc(OCCCO)ccc2N1C(=O)Cc1ccc(OC)cc1 | -1.22 |
| CC(C)N1C(=O)c2ccccc2[C@@H](C(=O)NCc2ccccc2)[C@@H]1c1ccc(CO)cc1 | -0.331 |
| O=C(O)[C@H]1C[C@H]2C(=O)NCC(=O)N2[C@H]1c1cccc(OCCO)c1 | 5.62 |
